- procedure text: Hemato-chemical parameters and tolerability in treated mice
- Type: in vivo
- experimental parameters: blood after euthanasia day 21; i.p. treatment day 1, 7, 14; means ± SD, n = 8
Let's look at some molecules and their measured LDH.

| molecule | LDH (U/L) |
| --- | --- |
| COc1cc2c(cc1OC)CN(CCCCc1cn(-c3ccc(F)cc3)c3ccccc13)CC2 [F397] | 6729 |
| N.N.[Cl][Pt][Cl] [Cis-Pt, cis-platinum, reference compound] | 7092 |
| CN(C)C(=O)CCSC(SCCC(=O)O)c1cccc(/C=C/c2ccc3ccc(Cl)cc3n2)c1 (stereo not drawn) [MK571, reference compound] | 7141 |
